Attribution: PubChem BioAssay (NCI)

system: SK-OV-3 ovarian; assay: NCI tumour cell line growth inhibition, 48 h; in the data active = GI50 below about 0.43 µM; inactive = the rest
Your answer must be one of the following: active, inactive

- compound: "CN(C)CCn1cc(-c2ccc3c(Nc4ccc(CC(=O)Nc5cccc(F)c5)cc4)ncnc3c2)cn1"
  target under test: "SK-OV-3 ovarian"
  category: "inactive"
- compound: "CC(C)[C@]12O[C@H]1[C@@H]1O[C@]13[C@]1(O[C@H]1C[C@H]1c4c(C(=O)c5ccccc5)oc(OC(=O)c5ccccc5)c4CC[C@@]13C)[C@@H]2O"
  target under test: "SK-OV-3 ovarian"
  category: "active"
- compound: "C=C1C(=O)O[C@H]2[C@H]1CC/C(COC(=O)CCC(=O)OC/C1=C/CC[C@@]3(C)O[C@H]3[C@H]3OC(=O)C(=C)[C@@H]3CC1)=C\\CC[C@@]1(C)O[C@@H]21"
  target under test: "SK-OV-3 ovarian"
  category: "inactive"
- compound: "CC(O)CN(CCN(CC(C)O)CC(C)O)CC(C)O.O=[N+]([O-])O.[Cu+2] (stereo not drawn)"
  target under test: "SK-OV-3 ovarian"
  category: "inactive"
- compound: "CN1CCN(c2ccc3nc(-c4ccc(OCCCN5C(=O)c6cccc7cccc(c67)C5=O)cc4)[nH]c3c2)CC1"
  target under test: "SK-OV-3 ovarian"
  category: "inactive"
- compound: "CC(C)(C)CC(C)(C)Cc1ccc(OCCOCC[N+](C)(C)Cc2ccccc2)cc1"
  target under test: "SK-OV-3 ovarian"
  category: "inactive"

What is the recorded call for this compound in the test? C=C1C(=O)O[C@H]2[C@H]1CC/C(Cn1cc(CCC)nn1)=C\CC[C@@]1(C)O[C@@H]21
inactive

// param item: COC(=O)c1c(-c2ccccc2)csc1NC(=O)c1c(-c2ccccc2)noc1C ; yields the recorded call
inactive

====

test system: SK-MEL-28 melanoma; test: NCI tumour cell line growth inhibition, 48 h
Where a SMILES comes first, the peptide text is derived from it. [ ]: non-standard residue; d: D form. The star is where a group is joined. X28 = COC1=CC(=O)N(C(=O)[C@@H](O*)C(C)C)[C@H]1Cc1ccccc1; NMeL = CN[C@@H](CC(C)C)C(=O)O; Hexanoyl = CCCCCC(=O)*
Here, each record is paired with measured TGI data.

- compound: "CC(C)=NN/C(=N\\S(=O)(=O)c1cc(Cl)c(Oc2ccc([N+](=O)[O-])cc2Cl)c(Cl)c1)Nc1ccc(Cl)cc1"
  TGI: "> 100 µM"
- compound: "CC(C)(C)c1ccccc1NS(=O)(=O)c1ccccc1"
  TGI: "> 100 µM"
- compound: "COC(=O)CSc1[nH]c2nc(C)nc(Nc3ccccc3)c2c1C#N"
  TGI: "> 10 µM"
- compound: "COc1cc(/C=C/C(=O)c2ccc(Nc3nc(Nc4ccc(F)cc4)nc(Nc4ccc(F)cc4)n3)cc2)cc(OC)c1OC"
  TGI: "> 100 µM"
- compound: "CC(C)(C)c1cc(C(O)(C(F)(F)F)C(F)(F)F)c2c(c1)C(C(F)(F)F)(C(F)(F)F)OC(c1ccccc1)(C(C)(C)C)N2 (stereo not drawn)"
  TGI: "22.1 µM"
- compound: "COC(=O)/C(C#N)=C1\\N=NNN1CCCc1ccccc1"
  TGI: "> 100 µM"

Given the compound COc1ccc(N=NN2CCCC2)cc1 , what is its reported TGI?
> 100 µM

Find the recorded TGI belonging to CC(C)[C@]12O[C@H]1[C@@H]1O[C@]13[C@]1(O[C@H]1C[C@H]1c4c(C(=O)c5ccccc5)oc(OC(=O)c5ccccc5)c4CC[C@@]13C)[C@@H]2O and report it.
0.0612 µM

Reported TGI for CCCCCC(=O)N[C@H](C(=O)N[C@H](C(=O)N(C)[C@@H](CC(C)C)C(=O)N1CCC[C@H]1C(=O)N1CCC[C@H]1C(=O)O[C@H](C(=O)N1C(=O)C=C(OC)[C@@H]1Cc1ccccc1)C(C)C)C(C)C)C(C)C (Hexanoyl-VV[NMeL]PP-X28) : what is it?
> 100 µM

Using the record for CC1(C(O)c2ccccc2)CN(C(C)(C)C)C(=O)/C1=C\Sc1ccccc1 (stereo not drawn) , report its TGI.
> 100 µM
